# Test Description: protein stability index of a GFP-peptide fusion (GPS, HEK-293T) (PSI 1-6); higher = more stable;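 note: 24-mer peptide tiles fused after GFP, lentivirally expressed, FACS-sorted into six equal bins by GFP/DsRed ratio, decoded by Illumina sequencing, PSI is the read-weighted mean bin number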
# Condition Notes: treatment: MLN4924 1 uM, 8 h; c terminus: a fixed tail appended
Returns MET if the recorded protein stability index is greater than or equal to 3, and NOT MET otherwise.

>>> df
                   construct_sequence    group
0    RGTHAVVGVATADAPLHSVGYTTL [SPSB1]  NOT MET
1    DCMGIDRQHIPDTYLCERCQPRNL [KMT2E]      MET
2     QSEPSEQDGVLDLSTKKSPCAGST [LCOR]      MET
3  TGDPLPEISKDNSCKENCTCSSCL [EDARADD]      MET
4    IHDLDLTLLNPRMIVDVTPYMNPS [CLCN6]  NOT MET

Kindly consider the entry below.
*Q* Record NRQTFVNSAIRFLRKYSFDGLDLD [CHIT1] ; criterion: protein stability index no lower than 3. Met?
*A* NOT MET

###

# Test Description: protein stability index of a GFP-peptide fusion (GPS, HEK-293T) (PSI 1-6); higher = more stable
# Condition Notes: treatment: MLN4924 1 uM, 8 h; c terminus: a fixed tail appended
Returns T if the recorded protein stability index is greater than or equal to 4, and F otherwise.

Past entries and their recorded results:
>>> print(df.to_string())
                  construct_sequence  group
0    DNEDSELNGDYGENIYPYEEDKDE [MIA2]      T
1   DTTEEVDHKPKLCRLAKGENGYGF [PDZK1]      F
2   GVVHPSNEVLSSDILPRWAIIGWL [INTS3]      F
3  GYQHVDLQNFSSSWSDGMAFCALV [SMTNL2]      F
4  WIRICRPGSIIGPQQHFLEEKQAS [CDC14A]      F

*Q* Record HVTVVILFFVPCIFLYARPNSTFP [OR4A15] ; criterion: protein stability index no lower than 4. Met?
*A* F

*Q* Record LEKWMQKNVEENLYSSSLGGGVAT [GLT8D2] ; criterion: protein stability index no lower than 4. Met?
*A* F

*Q* Record EINSHSLFSKWFSESGKLVTKMFQ [TRIP13] ; criterion: protein stability index no lower than 4. Met?
*A* F

*Q* Record DSSWYEPSAELVQTRMAVSLTAAE [ZNF232] ; criterion: protein stability index no lower than 4. Met?
*A* T

*Q* Record DSMTSQAKPEALSSPKFREEAAFP [ELOA2] ; criterion: protein stability index no lower than 4. Met?
*A* T

*Q* Record EDQHKLYQQIKAGAYDFPSPEWDT [CAMK2B] ; criterion: protein stability index no lower than 4. Met?
*A* T

*Q* Record PDPGPSPEASHLRFRRFRFQEAAG [ZNF263] ; criterion: protein stability index no lower than 4. Met?
*A* F

*Q* Record NLQCLYCEKTFRDKNTLKDHMRKK [ZNF277] ; criterion: protein stability index no lower than 4. Met?
*A* F

*Q* Record IVETLCIIWFSFELVVRFFACPSK [KCNA1] ; criterion: protein stability index no lower than 4. Met?
*A* F

*Q* Record DNVAYARAFNTDHQTQLLYQASAM [RAD51] ; criterion: protein stability index no lower than 4. Met?
*A* F
